Biological target: Gastrin/cholecystokinin type B receptor (Cavia porcellus)
Test: Binding activity against Cholecystokinin type B receptor from guinea pig cortex using [125]BH CCK-8s as radioligand.
property: IC50 (nM)

[[record]]
compound = "Cc1cccc(NC(=O)NC2N=C(N3CCCCC3)c3ccccc3N(C)C2=O)c1 (stereo unspecified)"
endpoint_value = 5.7

